Reference source for all entries: paper PMC12040169

# METHOD_SUMMARY: in vitro
# EXPERIMENTAL_SETUP: human, hela cells, % viability
# maps each entry to its viability at 28.5 h, 10 µM
Write it as a number; the unit % goes unstated.

Examples from the recorded data:
> print(dat)
                                   compound          measured.parameter  observed.value
1  O=C(CC(C(=O)O)n1cccn1)c1ccc(Br)cc1 (centres unmarked)  viability at 28.5 h, 10 µM            90.8
2  CC(NC(=O)c1ccc(-n2ccnc2)c(-n2cccc2)c1)c1ccco1 (centres unmarked)  viability at 28.5 h, 10 µM              98
3  COc1ccc2c(c1)CC(=O)NC21CCN(C(=O)NC(C)C)CC1  viability at 28.5 h, 10 µM            95.7
4  CCn1c2cc(C)oc2c2cnn(CC(=O)N3CCCC3)c(=O)c21  viability at 28.5 h, 10 µM             101

Recorded viability at 28.5 h, 10 µM for Cc1nc(COc2ccccc2)sc1C(=O)N1CCC(C(N)=O)CC1 , please?
103

Queued: CC(C)(C)c1ccc(-c2ccc3ccc(=O)[nH]c3n2)cc1
96.5

Queued: C[C@H](c1ccccc1)n1c(=O)[nH]c2ncc(-c3cccc(-c4ccccc4)c3)nc21
96.5

Queued: COC(=O)c1cccn2cc(CN3CCOCC3(C)C)nc12
93.8

Queued: O=C(Cc1ccccc1)N1CCCC1c1n[nH]cc1-c1ccncc1 (centres unmarked)
85.7

Queued: C[C@H]1[C@@H]2[C@@H](O)C([C@H](C)C(=O)N3CCCC3)CC[C@@]2(C)CC[C@@H]1NC(=O)C1CC1 (some centres unmarked)
85

====

# maps each entry to its viability at 28.5 h, 10 µM
# METHOD_SUMMARY: in vitro
# EXPERIMENTAL_SETUP: human, hela cells, % viability
Write it as a number; the unit % goes unstated.

> print(dat)
                                molecule  observed.value
1  COC12CCCC(C(=O)O)(CCC1)C2 [CBK038238]            93.8

Recorded viability at 28.5 h, 10 µM for C=CCn1c(NCc2ccco2)nc2ccccc21 [CBK269751] , please?
87.9

Queued: Cc1ccc(C)c2c(C)c(C(=O)N3CCC(O)C(C)C3)[nH]c12 (stereo not drawn) [CBK282527]
97.4

Queued: Cc1noc(C)c1S(=O)(=O)Nc1ccc(C(=O)Nc2ccc(F)cc2)cc1 [CBK034410]
95.1

Queued: Cc1cccc(-c2ccc(CC3(C(N)=O)CCN(C(=O)Cc4ccccc4)CC3)cc2)c1 [CBK285780]
101

Queued: COc1cccc2cc([C@H]3CN(C(=O)C(C)(C)N)C[C@@H]3C(=O)N3CCC4(CC3)CN(S(C)(=O)=O)c3ccccc34)oc12 [CBK001347C]
117

====

# METHOD_SUMMARY: in vitro
# EXPERIMENTAL_SETUP: human, hela cells, % viability
The label is T for viability at 28.5 h, 10 µM below 90% and F for viability at 28.5 h, 10 µM equal to or exceeding 90%.

Some solved cases for reference:
> print(dat)
                                   compound  class.name
1  O=C(c1ccc(OC(F)(F)F)cc1)N1CCC2(CCN(C(=O)c3cc(F)c(F)cc3F)C2)C1 (stereo not drawn) [CBK131384]           F
2  Cn1ncc(N2CCC(CNC(=O)c3ccccc3Cl)C2)cc1=O (stereo not drawn) [CBK306747]           F
3  CCCNCCc1ccc(NC(=O)Nc2cc(F)cc3c2OCOC3)cc1 [CBK173887T]           F
4  Cc1ccccc1OCC(=O)NCc1ccc(C(=O)O)cc1 [CBK287155]           F

Moving on to the next compound.
hey, is viability at 28.5 h, 10 µM for O=C(Nc1ccc(Cl)c(C(=O)O)c1)c1cccc(-n2cnnc2)c1 [CBK270016] lower than 90% or not?
T
